assay procedure: tubulin staining increase by stabilizing compounds – imaging, high-content imaging, primary screen (AID 2205)
assay setup: HeLa tubulin immunostaining HCS, 24 h, at 10 µM; measured here: nuclear condensation Hoechst responders, stronger effect = higher value, share of cells brighter than vehicle mean+2SD
The whole screen tested about 200,000 compounds, of which about 1,600 (0.8%) were called active. Only a selection was taken, and actives are over-represented in it overall.
Please enter 1.0 where % Hoechst-high responders is greater than or equal to 2%, and 0.0 where it is lower.

Some solved entries appear below for comparison.
[[record]]
compound = "C/C(CCC(=O)OC[C@H]1O[C@H](C#Cc2ccccc2)C=C[C@@H]1Oc1ccc(C)cc1)=N\\OC[C@@H](O)[C@H]1O[C@@H]2OC(C)(C)O[C@@H]2[C@H]1O"
assigned_class = 1.0

[[record]]
compound = "Cc1ccc(COc2ccc(/C=N/NC(=O)CN3CCCCC3)cc2)cc1"
assigned_class = 1.0

[[record]]
compound = "COC(=O)C1C(=O)NCC1c1ccc(C)cc1 (stereo unspecified)"
assigned_class = 0.0

[[record]]
compound = "Cc1ccc(-c2csc(SCC(=O)Nc3cc(C)on3)n2)cc1"
assigned_class = 0.0

[[record]]
compound = "Cc1noc(C)c1S(=O)(=O)Nc1ccc(C(=O)N2CCN(c3ccc(F)cc3)CC2)cc1"
assigned_class = 1.0

[[record]]
compound = "Cc1ccsc1C(=O)N/N=C/c1ccc([N+](=O)[O-])cc1"
assigned_class = 1.0

[[record]]
compound = "CCOC(=O)C1=C(C)Nc2nc3ccccc3n2C1c1cccs1 (stereo unspecified)"
assigned_class = 1.0

[[record]]
compound = "OCC1(CCOc2ccccc2)CCN(Cc2cn[nH]c2-c2ccccc2)CC1"
assigned_class = 1.0

[[record]]
compound = "CCOc1ccc(C2C(C(=O)NC)=C(C)Nc3nc4ccccc4n32)cc1OC (stereo unspecified)"
assigned_class = 0.0

[[record]]
compound = "COc1ccccc1CNC(=O)c1cc(=O)c2ccccc2o1"
assigned_class = 1.0


Task: Item "CN(NC(=O)c1ccccc1)c1nc2ccccc2nc1C(F)(F)F" with % Hoechst-high responders of 2% or above?
Output: 1.0

Task: Item "COc1cc2c(cc1OC)CN(C(=O)c1cc(=O)c3ccccc3o1)CC2" with % Hoechst-high responders of 2% or above?
Output: 1.0

Task: Item "O=c1cc(N2CCCCC2)c(-c2ccccc2)nn1Cc1cccc(F)c1" with % Hoechst-high responders of 2% or above?
Output: 0.0

----------
assay procedure: tubulin staining increase by stabilizing compounds – imaging, high-content imaging, primary screen (AID 2205);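 for % tubulin-high responders: anti alpha tubulin signal scored within the nucleus-defined area of each cell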
assay setup: HeLa tubulin immunostaining HCS, 24 h, at 10 µM; stronger effect = higher value, share of cells brighter than vehicle mean+2SD
In all, about 200,000 compounds went through this assay and about 1,600 (0.8%) were called active. The full list was thinned out, with actives kept by preference.
Give measured % tubulin-high responders for each item. Keep answers brief.
Answers are plain numbers, in %.

Previously resolved entries follow.
[[record]]
molecule = "COc1ccc(-c2csc(Nc3ccc(O)cc3)n2)cc1"
measured_parameter = "% tubulin-high responders"
unit_abbreviation = "%"
readout_number = 6.13

[[record]]
molecule = "Cc1cc(C)c2c3c(sc2n1)C(c1ccccc1)C(C#N)=C(N)O3 (stereo unspecified)"
measured_parameter = "% tubulin-high responders"
unit_abbreviation = "%"
readout_number = 12.3

[[record]]
molecule = "COc1ccc(Nc2nc(-c3ccccc3)cs2)cc1"
measured_parameter = "% tubulin-high responders"
unit_abbreviation = "%"
readout_number = 3.24


Report % tubulin-high responders for every entry below.
1. NC(=O)c1ccc(NC(=O)COC(=O)c2c3c(nc4ccccc24)/C(=C\c2ccc4c(c2)OCO4)CCC3)cc1
2. CN1CCN(C(=O)/C(=C\c2ccc3c(c2)OCO3)NC(=O)c2cccs2)CC1
3. CCOC(=O)c1c(C)[nH]c(C(=O)COc2ccc3c(c2)OCO3)c1C
4. C=C(C)COc1ccc(-c2n[nH]c(C)c2-c2ccccc2)c(O)c1
5. N#CC1=C(N)Oc2c(sc3ccccc23)C1c1ccco1 (stereo unspecified)
6. COc1ccc(/C=C/C(=O)Nc2ccc3c(c2)OCCO3)cc1OC
7. COc1ccc(OC)c(/C=C/C(=O)OCC(=O)Nc2ccc3c(c2)OCCO3)c1

Output:
[5.36, 1.67, 2.42, 3.77, 24.9, 1.43, 17.6]

Task: Give its % tubulin-high responders value. Item: CCCCCCCC1(C)NC(=O)N(CC(=O)Nc2cc(C)on2)C1=O (stereo unspecified)
Output: 3.92

----------
assay procedure: tubulin staining increase by stabilizing compounds – imaging, high-content imaging, primary screen (AID 2205)
assay setup: HeLa tubulin immunostaining HCS, 24 h, at 10 µM; measured here: nuclear condensation Hoechst responders, stronger effect = higher value, share of cells brighter than vehicle mean+2SD
Among all 200,000 compounds or so, about 1,600 (0.8%) were called active. For the sample, actives were picked, then their nearest neighbours and some compounds at random.
measured parameter: % Hoechst-high responders (%)
Numbers only, in %.

Previously resolved entries follow.
[[record]]
compound = "Cc1c(/C=N\\NC(=O)c2cc3ccccc3o2)c2ccccc2n1C"
measured_parameter = "% Hoechst-high responders"
readout_number = 21.2

[[record]]
compound = "COc1ccc(-n2c(C)nn(CC3CC3)c2=O)cc1"
measured_parameter = "% Hoechst-high responders"
readout_number = 1.41

[[record]]
compound = "COc1ccc(C2=NOC(C(=O)NCc3ccco3)C2)cc1OC (stereo not given)"
measured_parameter = "% Hoechst-high responders"
readout_number = 22.4

[[record]]
compound = "Cc1ccc(C(=O)OCC(=O)NCc2ccc3c(c2)OCO3)s1"
measured_parameter = "% Hoechst-high responders"
readout_number = 1.59

[[record]]
compound = "Cc1onc(C(=O)NCc2ccc(F)cc2)c1[N+](=O)[O-]"
measured_parameter = "% Hoechst-high responders"
readout_number = 1.75

[[record]]
compound = "CCc1nc2ccccc2c(C(=O)NCc2ccc(OC)cc2)c1C"
measured_parameter = "% Hoechst-high responders"
readout_number = 2.73

[[record]]
compound = "COc1cc(/C=C(\\C#N)c2nc3c(s2)CC(C)CC3)ccc1O (stereo not given)"
measured_parameter = "% Hoechst-high responders"
readout_number = 2.11

[[record]]
compound = "COc1ccc(Nc2cc(C)nc(-n3nc(C)cc3C)n2)cc1"
measured_parameter = "% Hoechst-high responders"
readout_number = 25.7

[[record]]
compound = "COc1ccc([N+](=O)[O-])cc1NC(=O)CC1SC(=Nc2cccc(C)c2C)N(/N=C(\\C)c2ccc(C)cc2)C1=O (stereo not given)"
measured_parameter = "% Hoechst-high responders"
readout_number = 1.74

[[record]]
compound = "CC(C)n1c(=O)[nH]c2cc(C(=O)Nc3ccccc3)ccc21"
measured_parameter = "% Hoechst-high responders"
readout_number = 0.954


Report % Hoechst-high responders for every entry below.
1. CCOC(=O)c1sc2nc(CSCC(=O)OCc3ccc(C(=O)OC)o3)[nH]c(=O)c2c1C
2. CCc1ccccc1NC(=S)N(CCN1CCCCCC1)Cc1ccco1
3. O=[N+]([O-])c1ccc(Sc2n[nH]c(-c3ccco3)n2)nc1
4. CCS(=O)(=O)Nc1ccc(C2=NN(C(C)=O)C(c3cccs3)C2)cc1 (stereo not given)
5. Cc1cc(C)n(-c2cc(Oc3ccccc3)ncn2)n1

Output:
1: 1.26; 2: 2.22; 3: 1.75; 4: 60.7; 5: 0.881

Report % Hoechst-high responders for every entry below.
1. COc1ccc(-c2cc(C(=O)NCc3ccco3)no2)cc1OC
2. CCN(CC)S(=O)(=O)c1ccc(N(C)CCc2ccc(OC)c(OC)c2)nc1
3. CC(C)c1csc(CN2CCC(CO)(Cc3ccccc3)CC2)n1
4. COc1ccc(/C=C/CN2CCN(Cc3ccc(C)cc3)C(CCO)C2)cc1 (stereo not given)
5. O=C(NC(=S)Nc1ccc(S(=O)(=O)N2CCOCC2)cc1)c1ccccc1[N+](=O)[O-]

Output:
1.41
1.73
1.55
2.01
1.54

Report % Hoechst-high responders for every entry below.
1. COc1ccc(-c2n[nH]c(C)c2-c2ccc(OC)c(OC)c2)c(O)c1
2. CCc1ccc(NC(=O)CC2C(=O)NCCN2C(=S)Nc2ccccc2)cc1 (stereo not given)
3. O=C(N/N=C/c1ccc(OCC2COCCO2)cc1)c1ccc(Br)cc1 (stereo not given)
4. COc1ccc(N2CCN(C(=O)CCSCc3ccccc3F)CC2)cc1
5. CNC(=S)N/N=C/c1cn(Cc2ccc(C)cc2)c2ccccc12
6. CC(Oc1cccc(NC(=O)c2cccs2)c1)C(=O)c1ccccc1 (stereo not given)

Output:
[19, 3, 1.72, 1.53, 11.2, 1.24]

----------
assay procedure: tubulin staining increase by stabilizing compounds – imaging, high-content imaging, primary screen (AID 2205);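 for % tubulin-high responders: anti alpha tubulin signal scored within the nucleus-defined area of each cell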
assay setup: HeLa tubulin immunostaining HCS, 24 h, at 10 µM; stronger effect = higher value, share of cells brighter than vehicle mean+2SD
Among all 200,000 compounds or so, about 1,600 (0.8%) were called active. Many of the other results were omitted from the sample, so actives are more common in it than they were.
measured parameter: % tubulin-high responders (%)
Give bare numbers, in %.

Report % tubulin-high responders for every entry below.
1. O=C(COC(=O)C1CCCCC1)Nc1ccc([N+](=O)[O-])cc1
2. Cc1[nH]n(-c2ccc(Cl)cc2)c(=O)c1/C=N/n1c(C)nc2ccccc2c1=O
3. Cc1ccccc1-c1nc(C#N)c(NCc2ccco2)o1
4. CC(C)n1c(=O)[nH]c2cc(C(=O)Nc3ccccc3)ccc21
5. c1ccc(CN=C2Nc3ccccc3CS2)nc1
6. O=C(/C=C/c1ccc(Cl)c([N+](=O)[O-])c1)c1cccnc1
7. COc1ccc(N2CCN(C(=O)CCSCc3ccccc3F)CC2)cc1

Output:
1: 1.8; 2: 5.31; 3: 1.4; 4: 1.61; 5: 4.7; 6: 1.22; 7: 3.62
